Each entry below lists one item and its recorded pKd value.
system: norovirus GII.3 TCH strain virus-like particle (VLP) (norovirus GII.3 TCH strain)
assay_summary: BLI (BLItz), biotinylated peptide on SA chip, VLP in solution
Where no end group is shown, it is not given here.
In textbook form, pKd equals minus log to base ten of the concentration in mol/L.

Observe how each entry below is paired with its result.
* NFRVPIRFTH (also: biotinylated, residue not given here, spacer sequence added, letters and position not given here) [norovirus-binding peptide of SEQ ID NO: 131] | 3.80
* VELFLLTSSC (also: biotinylated, residue not given here, spacer sequence added, letters and position not given here) [norovirus-binding peptide of SEQ ID NO: 155] | 3.10
* ECMGRRWMSS (also: biotinylated, residue not given here, spacer sequence added, letters and position not given here) [norovirus-binding peptide of SEQ ID NO: 154] | 6.91

Inquiry: Look up pKd: VVGFGRRSLF (also: biotinylated, residue not given here, spacer sequence added, letters and position not given here) [norovirus-binding peptide of SEQ ID NO: 156]
Reply text: 5.97
